study.system: CYP2C9 (Homo sapiens, UniProt P11712)
Sequence (P11712 whole entry): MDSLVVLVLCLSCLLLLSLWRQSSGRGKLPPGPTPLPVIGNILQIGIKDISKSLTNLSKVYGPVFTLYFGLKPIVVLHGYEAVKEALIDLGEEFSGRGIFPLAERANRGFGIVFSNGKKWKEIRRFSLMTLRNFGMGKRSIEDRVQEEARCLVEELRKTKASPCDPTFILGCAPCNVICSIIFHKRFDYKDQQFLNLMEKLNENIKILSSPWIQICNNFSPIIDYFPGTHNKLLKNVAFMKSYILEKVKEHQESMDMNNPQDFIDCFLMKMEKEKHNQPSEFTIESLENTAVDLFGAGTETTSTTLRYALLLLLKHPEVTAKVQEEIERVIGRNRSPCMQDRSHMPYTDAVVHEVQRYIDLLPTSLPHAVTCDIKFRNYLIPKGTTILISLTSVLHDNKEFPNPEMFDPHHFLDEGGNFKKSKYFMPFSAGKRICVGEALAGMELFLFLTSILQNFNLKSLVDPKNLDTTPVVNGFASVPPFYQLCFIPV
assay.explanation: CYP2C9 inhibition in HLMs (diclofenac)
experimental.conditions: IC50 TDI, 30 min pre-incubation with NADPH generating system
endpoint.label: IC50 (µM)
Write the number in µM without appending the unit.

So, COc1cc2c(c(OC)c1OC)-c1c(cc3c(c1OC)OCO3)C[C@H](C)[C@H](C)C2 [Gomisin N, gomisin N] ? Its IC50 was 10.9

As a next step, examine the molecule that follows.
Form: molecule = COc1c2c(cc3c1-c1c(cc4c(c1OC)OCO4)C[C@H](C)[C@H](C)C3)OCO2 [Wuweizisu C, wuweizisu C] ; IC50 = 3.6

* * *

study.system: CYP3A (Homo sapiens)
Sequence (P08684 2-503): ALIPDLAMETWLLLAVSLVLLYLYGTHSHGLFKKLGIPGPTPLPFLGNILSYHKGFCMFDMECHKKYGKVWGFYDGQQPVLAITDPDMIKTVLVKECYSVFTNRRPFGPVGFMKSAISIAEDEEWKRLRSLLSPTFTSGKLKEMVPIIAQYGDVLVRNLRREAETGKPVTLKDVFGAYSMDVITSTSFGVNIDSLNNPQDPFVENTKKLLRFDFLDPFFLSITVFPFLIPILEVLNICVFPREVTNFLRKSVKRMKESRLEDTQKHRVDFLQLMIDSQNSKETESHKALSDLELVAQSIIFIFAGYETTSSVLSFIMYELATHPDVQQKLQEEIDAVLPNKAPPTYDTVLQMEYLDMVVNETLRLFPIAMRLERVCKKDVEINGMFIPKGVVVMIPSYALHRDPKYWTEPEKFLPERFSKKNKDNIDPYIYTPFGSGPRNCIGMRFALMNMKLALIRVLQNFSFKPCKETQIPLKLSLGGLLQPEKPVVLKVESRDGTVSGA
assay.explanation: CYP3A inhibition in HLMs (midazolam, nifedipine, testosterone);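 note: pooled HLMs at 0.25 mg/mL in phosphate buffer, inhibitor across 0–50 µM, 10 min reaction at 37 °C after preincubation, probe metabolite quantified by LC-MS/MS, triplicate incubations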
experimental.conditions: pooled human liver microsomes, pH 7.4, probe nifedipine (cocktail set B), IC50 TDI, CYP3A (nifedipine), HLMs, nifedipine, 30 min pre-incubation with NADPH generating system
endpoint.label: IC50 at 10 min (nM)
Please respond with the number in nM and leave the unit unwritten.

Examples from the recorded data:
For this compound ( COc1cc2c(c(OC)c1OC)-c1c(cc3c(c1OC)OCO3)C[C@H](C)[C@H](C)C2 [Gomisin N, gomisin N] ), measured IC50 at 10 min is 610

// IC50 at 10 min value for COc1cc2c(c(OC)c1OC)-c1c(cc3c(c1OC)OCO3)C[C@H](C)[C@](C)(O)[C@H]2OC(=O)c1ccccc1 [Gomisin C, gomisin C] : 90

Next:
Entry COc1cc2c(c(OC)c1OC)-c1c(cc(OC)c(OC)c1OC)C[C@](C)(O)[C@@H](C)C2 [Schisandrin, schisandrin] — recorded IC50 at 10 min = 43300

* * *

Recorded pIC50 for the following molecules
study.system: CYP2C19 (Homo sapiens)
Sequence (P33261 whole entry): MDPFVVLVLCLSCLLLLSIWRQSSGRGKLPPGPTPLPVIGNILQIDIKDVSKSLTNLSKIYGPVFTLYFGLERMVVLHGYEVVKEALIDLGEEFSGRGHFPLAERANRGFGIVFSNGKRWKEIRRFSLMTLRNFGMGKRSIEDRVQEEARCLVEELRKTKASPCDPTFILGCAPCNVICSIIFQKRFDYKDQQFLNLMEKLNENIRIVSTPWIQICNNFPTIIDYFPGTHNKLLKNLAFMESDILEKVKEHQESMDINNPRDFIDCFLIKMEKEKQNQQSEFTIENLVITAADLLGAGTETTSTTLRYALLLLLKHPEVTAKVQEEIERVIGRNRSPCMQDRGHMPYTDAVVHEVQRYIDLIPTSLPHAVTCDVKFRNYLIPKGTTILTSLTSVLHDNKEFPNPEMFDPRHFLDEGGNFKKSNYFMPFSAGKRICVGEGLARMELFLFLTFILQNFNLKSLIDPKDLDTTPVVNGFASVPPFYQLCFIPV
assay.explanation: CYP2C19 inhibition in HLMs (S-mephenytoin)
experimental.conditions: IC50 TDI, 30 min pre-incubation with NADPH generating system
In textbook form, pIC50 equals minus log to base ten of the concentration in mol/L.

Sample records with pIC50:
Notebook: COc1cc2c(c(OC)c1OC)-c1c(cc3c(c1OC)OCO3)C[C@H](C)[C@](C)(O)[C@H]2OC(=O)c1ccccc1 , pIC50 read as 4.69

The molecule COc1c2c(cc3c1-c1c(cc4c(c1OC)OCO4)C[C@H](C)[C@H](C)C3)OCO2 showed pIC50 equal to 5.82

Next:
Reported pIC50 of COc1cc2c(c(OC)c1OC)-c1c(cc3c(c1OC)OCO3)C[C@H](C)[C@H](C)C2 : 5.46

Short answer for COc1cc2c(c(OC)c1OC)-c1c(cc(OC)c(OC)c1OC)C[C@](C)(O)[C@@H](C)C2 : pIC50 was 4.34

* * *

study.system: CYP2C9 (Homo sapiens)
assay.explanation: CYP2C9 inhibition in HLMs (diclofenac)
experimental.conditions: IC50 RI, reversible inhibition
endpoint.label: IC50 (µM)
# output: bare number, implied unit µM

According to the records, this compound COc1cc2c(c(OC)c1OC)-c1c(cc(OC)c(OC)c1OC)C[C@](C)(O)[C@@H](C)C2 [Schisandrin, schisandrin] displays IC50 of 43

// field: IC50; key: COc1cc2c(c(OC)c1OC)-c1c(cc3c(c1OC)OCO3)C[C@H](C)[C@H](C)C2 [Gomisin N, gomisin N] ; value = 36.2

The compound listed as COc1c2c(cc3c1-c1c(cc4c(c1OC)OCO4)C[C@H](C)[C@H](C)C3)OCO2 [Wuweizisu C, wuweizisu C] has a reported IC50 of 8.9
